target: human Src enzyme (Homo sapiens); construct: purchased Carna Biosciences, Inc. 08-173; assay: Src enzyme inhibitory activity (time-resolved fluorometry, biotinylated peptide phosphorylation); format: biochemical; details: biotinylated peptide phosphorylation, read-out: SRC_IC50
Sequence (P12931 whole entry): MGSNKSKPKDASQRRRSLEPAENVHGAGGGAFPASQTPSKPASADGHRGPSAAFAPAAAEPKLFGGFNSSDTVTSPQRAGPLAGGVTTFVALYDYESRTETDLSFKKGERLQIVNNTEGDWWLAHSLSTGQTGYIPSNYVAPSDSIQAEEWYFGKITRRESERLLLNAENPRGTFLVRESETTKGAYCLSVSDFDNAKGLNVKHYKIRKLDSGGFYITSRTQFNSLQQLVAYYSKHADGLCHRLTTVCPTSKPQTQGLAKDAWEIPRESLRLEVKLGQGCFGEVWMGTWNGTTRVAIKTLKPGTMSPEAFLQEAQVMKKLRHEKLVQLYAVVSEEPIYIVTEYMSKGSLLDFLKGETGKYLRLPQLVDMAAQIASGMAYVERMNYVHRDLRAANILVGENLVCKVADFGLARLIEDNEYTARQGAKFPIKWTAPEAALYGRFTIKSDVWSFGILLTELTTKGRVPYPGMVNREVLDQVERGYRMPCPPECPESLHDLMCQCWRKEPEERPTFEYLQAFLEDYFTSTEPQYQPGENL
pIC50: −log10 of the molar value.
experimental_endpoint: pIC50

INSERT INTO measurements (molecule, numeric_value) VALUES
  ('CC(=O)N1CCC(c2cc3[nH]c(C(=O)c4cnn(-c5c(C)cc(Oc6ccccc6F)cc5F)c4N)cc3cc2OC(F)F)CC1 [Example 4-17-005]', 7.44),
  ('Cc1cc(Oc2ccccc2F)cc(F)c1-n1ncc(C(=O)c2cc3cc(OCC(F)F)c(NC4CCN(S(C)(=O)=O)CC4)cc3[nH]2)c1N [Example 4-23-028]', 7.15),
  ('Cc1cc(Oc2c(F)cccc2F)ncc1-n1ncc(C(=O)c2cc3cc(F)c(NS(=O)(=O)C4CC4)cc3[nH]2)c1N [Example 4-2-044]', 6.80),
  ('Cc1cc(Oc2ccccc2F)cc(F)c1-n1ncc(C(=O)c2cc3cc(OCC(F)F)c(N4CCCC4=O)cc3[nH]2)c1N [Example 4-21-004]', 8.04),
  ('Cc1cc(Oc2c(F)cccc2F)ncc1-n1ncc(C(=O)c2cc3cc(OCC(F)F)c(NC4CN(S(C)(=O)=O)C4)cc3[nH]2)c1N [Example 4-23-022]', 7.62),
  ('Cc1cc(Oc2ccccc2F)cc(F)c1-n1ncc(C(=O)c2cc3cc(OCC(F)F)c(C4CCN(S(=O)(=O)C5CC5)CC4)cc3[nH]2)c1N [Example 4-17-019]', 7.74);
